Listing of recorded slope by entry.
Target: Alpha-2C adrenergic receptor (Homo sapiens) (UniProt P18825)
Sequence (P18825 whole entry, looked up): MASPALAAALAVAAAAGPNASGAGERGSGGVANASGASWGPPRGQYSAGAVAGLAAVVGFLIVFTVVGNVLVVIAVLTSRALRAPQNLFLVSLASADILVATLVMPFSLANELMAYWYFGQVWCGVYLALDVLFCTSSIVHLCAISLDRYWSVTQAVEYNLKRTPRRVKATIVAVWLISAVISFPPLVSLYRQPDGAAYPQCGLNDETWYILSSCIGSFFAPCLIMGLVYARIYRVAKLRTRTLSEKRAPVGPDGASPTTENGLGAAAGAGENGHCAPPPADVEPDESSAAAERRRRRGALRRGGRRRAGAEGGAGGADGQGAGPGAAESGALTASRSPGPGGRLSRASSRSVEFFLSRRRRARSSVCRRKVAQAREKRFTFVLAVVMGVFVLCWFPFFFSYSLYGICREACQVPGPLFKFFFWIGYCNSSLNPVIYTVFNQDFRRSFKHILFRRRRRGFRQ
Assay: compounds altering alpha2C-coupled GIRK flux – cell-based, HEK293 alpha2C/GIRK1/2, thallium flux, primary screen (AID 624);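 also: slope of fluorescence ratio to pre-addition baseline per second over 15 to 24 s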
Settings: thallium flux BTC fluorescence, at 10 µM, actives lie on both sides
Could you respond with only the numeric value?

Let me know recorded slope for `COc1ccc(C(=O)OCC(=O)NCc2ccco2)cc1OC` , thanks.
0.00497

Let me know recorded slope for `COc1ccc(N(C(=O)c2ccco2)S(=O)(=O)c2cc(OC)ccc2OC)cc1` , thanks.
0.00421

Let me know recorded slope for `CC1=C/C(=C/N(C)c2ccccc2)C(=O)S1` , thanks.
0.0049

Let me know recorded slope for `NC(=O)c1c(NC(=O)Cc2cccs2)sc2c1CCC2` , thanks.
0.00572

Let me know recorded slope for `CC(=O)N1CCN(S(=O)(=O)c2ccc(S(=O)(=O)NC3CC3)cc2)CC1` , thanks.
0.00506

Let me know recorded slope for `NC(=O)c1ccsc1NC(=O)COC(=O)Cc1ccsc1` , thanks.
0.00509

====

Listing of recorded inhibition of aggregation by entry.
Assay: reduction of polyQ htt aggregates in cells – imaging, exon1htt(103Q)mCFP cells, high-content imaging, primary screen (AID 483);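 also: compound exposure lasted 3 days before fixation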
Settings: exon1htt(103Q)mCFP cell line, aggregate imaging, at 2 µM; stronger effect = higher value
Enter your answer as a number in %; do not include the unit.

Examples with their reported inhibition of aggregation follow.
compound: CCOC(=O)N1CCN(S(=O)(=O)c2cc(C)c(C)cc2C)CC1
result: -7.2
--
compound: O=C1CN(C(=O)CN2CCCC2)C(c2ccccc2)c2cc(Br)ccc2N1 (stereo unspecified)
result: -15.4
--
compound: Cc1nc2nc(Cc3ccccc3)[nH]n2c(=O)c1Cc1ccccc1
result: -11.2
--
compound: Cc1cc(NC(=O)CS(=O)(=O)c2cn(Cc3ccccc3Cl)c3ccccc23)no1
result: 0.3
--
compound: CCOC(=O)c1ccc(NC(=O)CC2SC(=NC)N(C)C2=O)cc1 (stereo unspecified)
result: -8.2
--
compound: O=C(Nc1ccccc1)N1C(=O)C2(OCCO2)c2ccccc21
result: -15.7

Next compound, please.
Let me know recorded inhibition of aggregation for `CCOC(=O)c1c2n(c3ccc(O)cc13)CCCCC2` , thanks.
-7.5

====

Assay: TLR3 IRF3 reporter activation blockers – cell-based, poly I:C stimulus, luciferase, 10K MLSCN set, primary screen (AID 602277)
Conditions: HEK293-TLR3 RL24 IRF3 luciferase reporter, at 10 µM, stronger effect = higher value
Active and inactive are the calls of the source.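 Rule for the calls: active = inhibition of the reporter signal at or above 50%; inactive = inhibition below 50%.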
quantity_kind: inhibition

Examples with their reported inhibition follow.
molecule: Cc1cccc(N2CCN(C(=O)Cn3ccc4ccccc4c3=O)CC2)c1C
inhibition: -30.8% (inactive)

molecule: CCOC(=O)c1c(NC(=O)c2cccs2)sc2c1CCN(C(=O)OCC)C2
inhibition: -1.84% (inactive)

molecule: CC(=O)Nc1ccc(S(=O)(=O)N(CC(=O)O)Cc2ccccc2)cc1
inhibition: 14.2% (inactive)

molecule: C1CCN=C(Nc2nc3c(s2)CCCC3)CC1
inhibition: -50% (inactive)

Next molecule, please.
Let me know recorded inhibition for `CCOC(=O)CSc1nc2ccccc2n1CC(=O)N1CCN(c2ccccc2)CC1` , thanks.
1.41% (inactive)

====

Molecular target: Voltage-gated potassium channel subunit beta-2 (Rattus norvegicus) (UniProt P62483)
Sequence (P62483 whole entry, looked up): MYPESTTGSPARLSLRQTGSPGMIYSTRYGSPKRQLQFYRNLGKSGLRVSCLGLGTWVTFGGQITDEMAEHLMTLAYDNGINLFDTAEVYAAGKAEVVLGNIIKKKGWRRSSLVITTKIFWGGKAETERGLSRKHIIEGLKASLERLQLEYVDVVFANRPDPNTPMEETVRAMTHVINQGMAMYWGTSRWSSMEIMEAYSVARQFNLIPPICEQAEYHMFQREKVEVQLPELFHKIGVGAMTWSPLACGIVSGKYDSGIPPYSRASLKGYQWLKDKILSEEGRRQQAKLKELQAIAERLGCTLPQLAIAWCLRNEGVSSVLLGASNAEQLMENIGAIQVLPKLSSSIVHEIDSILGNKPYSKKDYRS
Assay: enhancers of rat Kvbeta2 NADPH turnover – biochemical, NADPH fluorescence, primary screen (AID 623);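 also: fluorescence intensity change per second fitted from 20 to 320 s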
Conditions: Recombinant KvBeta, NADPH fluorescence decrease slope, 10 min; at 10 µM; stronger effect = lower value
Listing of recorded NADPH fluorescence slope by entry.
Could you respond with only the numeric value?

Examples with their reported NADPH fluorescence slope follow.
compound: CCN(CC)S(=O)(=O)c1ccc(Cl)c(C(=O)OC)c1
NADPH fluorescence slope: -2.2e-05
//
compound: Cc1nn(Cc2ccccc2)c2c1C(c1ccncc1)C(C#N)=C(N)O2 (stereo unspecified)
NADPH fluorescence slope: -5.9e-05
//
compound: CCCC(CCC)n1[nH]c(=O)c2c(C)cc(C)nc21
NADPH fluorescence slope: 3.6e-05
//
compound: O=C1CCCCCC1C1(O)C(=O)Nc2ccccc21 (stereo unspecified)
NADPH fluorescence slope: 4e-05
//
compound: Cn1nc(C(=O)Nc2cccc(C(F)(F)F)c2)ccc1=O
NADPH fluorescence slope: 4e-05

Let me know recorded NADPH fluorescence slope for `CC(=O)NCc1ccc(C(=O)CSc2nnc(-c3ccncc3)n2Cc2ccccc2)o1` , thanks.
-5.8e-05

Let me know recorded NADPH fluorescence slope for `COc1ccccc1CN(Cc1nc2ccccc2c(=O)[nH]1)C(=O)Nc1ccccc1` , thanks.
-4.8e-05

Let me know recorded NADPH fluorescence slope for `COc1ccc(NC(=O)CC2CCCCC2)cc1OC` , thanks.
-2.3e-05

Let me know recorded NADPH fluorescence slope for `Clc1ccc(Cl)c(-c2nn3c(COc4ccccc4)nnc3s2)c1` , thanks.
-2.8e-05

Let me know recorded NADPH fluorescence slope for `O=S(=O)(NCCCCCNS(=O)(=O)c1ccccc1)c1ccccc1` , thanks.
-3.3e-05

Let me know recorded NADPH fluorescence slope for `N#CCCN(Cc1cccnc1)C(=O)Nc1ccc(Cl)c(Cl)c1` , thanks.
5.4e-05

====

Listing of recorded inhibition by entry.
Experiment: blockers of RIG-like receptor reporter activation – cell-based, Sendai virus stimulus, luciferase, 10K MLSCN set, TLR/RLR signaling modifier project, primary screen (AID 602276);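 also: firefly luciferase from ISG56 promoter only with Renilla not read in this screen; 0% = Sendai virus plus DMSO and 100% = medium plus DMSO without virus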
Details: HEK293 RL24 IRF3 luciferase reporter, at 10 µM, stronger effect = higher value
The source made the active and inactive calls.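 How the source made its calls: active means inhibition at or above 50% at 10 µM; inactive means inhibition below 50%.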

Examples with their reported inhibition follow.
compound: O=C(Nc1ccc(F)cc1)N(Cc1ccco1)Cc1cc2cc3c(cc2[nH]c1=O)OCO3
inhibition: -8.59% (inactive)
--
compound: COc1cc(C(=O)OCc2cc3ccccc3[nH]c2=O)cc(OC)c1OC
inhibition: 17.4% (inactive)
--
compound: COc1ccccc1N1CCN(C(=O)C2CCN(S(=O)(=O)c3ccc(F)cc3)CC2)CC1
inhibition: -6.92% (inactive)
--
compound: c1ccc(CCc2nc(-c3cccnc3)no2)cc1
inhibition: -30.7% (inactive)

Let me know recorded inhibition for `Cn1c(SCc2cccc3ccccc23)nnc1-c1ccco1` , thanks.
-8.19% (inactive)

Let me know recorded inhibition for `Cc1cc(NC(=O)CSc2nccn2-c2ccc(Cl)cc2)no1` , thanks.
-5.68% (inactive)

Let me know recorded inhibition for `O=C(Nc1ccc2c(c1)OCCO2)C1CCN(C(=O)c2ccc(F)cc2)CC1` , thanks.
-6.3% (inactive)

====

Listing of recorded inhibition by entry.
Test: TLR3 IRF3 reporter activation blockers – cell-based, poly I:C stimulus, luciferase, 10K MLSCN set, primary screen (AID 602277)
Conditions: HEK293-TLR3 RL24 IRF3 luciferase reporter, at 10 µM, stronger effect = higher value
Enter your answer as a number in %; do not include the unit.

Examples with their reported inhibition follow.
compound: Cc1nc2ccccc2n1CCC(=O)Nc1cccc(F)c1
inhibition / %: 4.83
--
compound: O=C(CN(Cc1ccco1)C(=O)c1cc(=O)[nH]c2ccccc12)Nc1ccccc1Br
inhibition / %: 16.8
--
compound: CCOC(=O)c1cnc(-n2nc(C)cc2C)nc1Nc1ccc(N(C)C)cc1
inhibition / %: 4.11
--
compound: CC1=C(C(=O)N2CCOCC2)C(c2ccsc2)C2=C(CCCC2=O)N1 (stereo not given)
inhibition / %: 20.8
--
compound: O=C(CSc1nc(C2CCCCC2)n(-c2ccccc2)n1)NCCN1C(=O)CSC1=O
inhibition / %: 23.3
--
compound: COc1cccc(N2CCN(CC(=O)NCc3cccs3)CC2)c1
inhibition / %: -6.45
--
compound: COC(=O)Nc1ccc(S(=O)(=O)N2CCCCCC2)cc1
inhibition / %: 19.7
--
compound: COc1cc(NC(=O)c2ccco2)c(OC)cc1NC(=O)CCC(=O)Nc1cc(C)cc(C)c1
inhibition / %: 27.3
--
compound: O=S(=O)(c1ccc(OCC(O)CN2CCC(Cc3ccccc3)CC2)cc1)N1CCOCC1 (stereo not given)
inhibition / %: 3.35

Next compound, please.
Let me know recorded inhibition for `CCOc1ccc2nc(Nc3nc4c(c(=O)[nH]3)CCC4)nc(C)c2c1` , thanks.
-83.1

====

Assay: endothelial E-selectin expression blockers – imaging, HUVEC, immunofluorescence, MLSMR starter and 10KST1 sets, primary screen (AID 487);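 also: signal is fraction of cell area covered by stained E-selectin grains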
Settings: HUVEC TNFalpha-induced E-selectin immunofluorescence imaging, at 2 µM; stronger effect = higher value
Listing of recorded inhibition by entry.
Enter your answer as a number in %; do not include the unit.

Examples with their reported inhibition follow.
molecule: O=C(CCC(=O)N(c1cccc(F)c1)C(C(=O)NC1CCCC1)c1ccncc1)Nc1cccnc1 (stereo not given)
unit_of_measurement: %
result: -32.3
//
molecule: CCC1CCCCN1S(=O)(=O)c1ccc(C(=O)Nc2nnc(-c3ccccc3Cl)o2)cc1 (stereo not given)
unit_of_measurement: %
result: -52.8
//
molecule: CC(C)(C)NC(=O)COC(=O)c1ccc(O)cc1
unit_of_measurement: %
result: 10
//
molecule: CCOC(=O)/C=C1\SCC(=O)N1Cc1nnc(-c2ccccc2Br)o1
unit_of_measurement: %
result: -51.5

Let me know recorded inhibition for `CCOC(=O)c1nnn(-c2nonc2N)c1CN1CCc2ccccc2C1` , thanks.
-18.4
